- Tested on: Candida albicans
- assay-explanation: Antifungal activity against 10^7 cells/ml wild-type Candida albicans BF-1 planktonic cells by XTT reduction assay
- Type: functional
As shown below, each of these compounds has a reported MIC value.
quantity-measured: MIC (µg/mL)

| compound | result-units | assay-result |
| --- | --- | --- |
| CC[C@H](C)C[C@H](C)CCCCCCCCC(=O)N[C@H]1C[C@@H](O)[C@@H](NCCN)NC(=O)[C@@H]2[C@@H](O)CCN2C(=O)[C@H]([C@H](O)CCN)NC(=O)[C@H]([C@H](O)[C@@H](O)c2ccc(O)cc2)NC(=O)[C@@H]2C[C@@H](O)CN2C(=O)[C@H]([C@@H](C)O)NC1=O | µg/mL | 0.2 |
| CC(=O)N1CCN(c2ccc(OCC3COC(Cn4ccnc4)(c4ccc(Cl)cc4Cl)O3)cc2)CC1 (centres undefined) | µg/mL | 16 |
| Nc1nc(=O)[nH]cc1F | µg/mL | 6.5 |
| C[C@@H]1[C@H](O)[C@@H](C)/C=C/C=C/C=C/C=C/C=C/C=C/C=C/[C@H](O[C@@H]2O[C@H](C)[C@@H](O)[C@H](N)[C@@H]2O)C[C@@H]2O[C@](O)(C[C@@H](O)C[C@@H](O)[C@H](O)CC[C@@H](O)C[C@@H](O)CC(=O)O[C@H]1C)C[C@H](O)[C@H]2C(=O)O | µg/mL | 0.46 |
